Test Method Notes: Drug uptake in tumor of C57BL/6J mouse xenografted with mouse B16F0 cells at 3.7 MBq, iv after 7 days by gamma scintigraphic imaging analysis relative to control
Format: ADME, organism-based, Neoplasm
Measurement Conditions: in vivo, 168 h
Readout Kind: Drug uptake (% ID/g)

[[record]]
compound_structure_string = "CCN(CCNC(=O)c1cnc2cc([125I])ccc2n1)Cc1cn(CCF)nn1.Cl"
unit_descriptor = "% ID/g"
readout_number = 5.3

[[record]]
compound_structure_string = "CCN(CCNC(=O)c1cnc2cc([125I])ccc2n1)CCOCCOCCOCCF.Cl"
unit_descriptor = "% ID/g"
readout_number = 2.7

[[record]]
compound_structure_string = "CCN(CCCF)CCNC(=O)c1cnc2cc([125I])ccc2n1"
unit_descriptor = "% ID/g"
readout_number = 3

[[record]]
compound_structure_string = "CCN(CC#CCF)CCNC(=O)c1cnc2cc([125I])ccc2n1.Cl"
unit_descriptor = "% ID/g"
readout_number = 8

[[record]]
compound_structure_string = "CCN(CCNC(=O)c1cnc2cc([125I])ccc2n1)CCOCCOCCOCCOCCOCCOCCOCCF"
unit_descriptor = "% ID/g"
readout_number = 1.5

[[record]]
compound_structure_string = "CCN(C/C=C/CF)CCNC(=O)c1cnc2cc([125I])ccc2n1.Cl"
unit_descriptor = "% ID/g"
readout_number = 3.3


----------
Test Method Notes: Drug uptake in tumor of C57BL/6J mouse xenografted with mouse B16F0 cells at 3.7 MBq, iv after 72 hrs by gamma scintigraphic imaging analysis relative to control
Type: ADME, organism-based, Neoplasm
Measurement Conditions: in vivo
Recorded measurements of Drug uptake, one per entry
Readout Kind: Drug uptake (% ID/g)

[[record]]
compound_structure_string = "CCN(CCNC(=O)c1cnc2cc([125I])ccc2n1)CCOCCOCCOCCOCCOCCOCCOCCF"
readout_kind = "Drug uptake"
readout_number = 3.8

[[record]]
compound_structure_string = "CCN(CCF)CCNC(=O)c1cnc2cc([125I])ccc2n1.Cl"
readout_kind = "Drug uptake"
readout_number = 20

[[record]]
compound_structure_string = "CCN(CCCF)CCNC(=O)c1cnc2cc([125I])ccc2n1"
readout_kind = "Drug uptake"
readout_number = 8.5

[[record]]
compound_structure_string = "CCN(CCNC(=O)c1cnc2cc([125I])ccc2n1)Cc1cn(CCF)nn1.Cl"
readout_kind = "Drug uptake"
readout_number = 11

[[record]]
compound_structure_string = "CCN(CC#CCF)CCNC(=O)c1cnc2cc([125I])ccc2n1.Cl"
readout_kind = "Drug uptake"
readout_number = 14.9

[[record]]
compound_structure_string = "CCN(C/C=C/CF)CCNC(=O)c1cnc2cc([125I])ccc2n1.Cl"
readout_kind = "Drug uptake"
readout_number = 10

[[record]]
compound_structure_string = "CCN(CCNC(=O)c1cnc2cc([125I])ccc2n1)CCOCCOCCOCCF.Cl"
readout_kind = "Drug uptake"
readout_number = 8.6

